The origin of these recorded values is paper PMC8073719.

target: hPHGDH (Homo sapiens, UniProt O43175); assay: Ligand binding by quenching of protein fluorescence at 330 nm; conditions: Kd (NAD^+; main phase of NADH binding), discussion value
pKd: −log10 of the molar value.
result_type: pKd

NC(=O)C1=CN([C@@H]2O[C@H](COP(=O)(O)OP(=O)(O)OC[C@H]3O[C@@H](n4cnc5c(N)ncnc54)[C@H](O)[C@@H]3O)[C@@H](O)[C@H]2O)C=CC1 [NADH]: ~3.89

Continue with the next molecule.
Value wanted: pKd (hPHGDH (Homo sapiens, UniProt O43175)) of entry NC(=O)c1ccc[n+]([C@@H]2O[C@H](COP(=O)(O)OP(=O)(O)OC[C@H]3O[C@@H](n4cnc5c(N)ncnc54)[C@H](O)[C@@H]3O)[C@@H](O)[C@H]2O)c1 [NAD^+]
~3.89

---

Target: UniProtKB O43175
Sequence (O43175 1-533): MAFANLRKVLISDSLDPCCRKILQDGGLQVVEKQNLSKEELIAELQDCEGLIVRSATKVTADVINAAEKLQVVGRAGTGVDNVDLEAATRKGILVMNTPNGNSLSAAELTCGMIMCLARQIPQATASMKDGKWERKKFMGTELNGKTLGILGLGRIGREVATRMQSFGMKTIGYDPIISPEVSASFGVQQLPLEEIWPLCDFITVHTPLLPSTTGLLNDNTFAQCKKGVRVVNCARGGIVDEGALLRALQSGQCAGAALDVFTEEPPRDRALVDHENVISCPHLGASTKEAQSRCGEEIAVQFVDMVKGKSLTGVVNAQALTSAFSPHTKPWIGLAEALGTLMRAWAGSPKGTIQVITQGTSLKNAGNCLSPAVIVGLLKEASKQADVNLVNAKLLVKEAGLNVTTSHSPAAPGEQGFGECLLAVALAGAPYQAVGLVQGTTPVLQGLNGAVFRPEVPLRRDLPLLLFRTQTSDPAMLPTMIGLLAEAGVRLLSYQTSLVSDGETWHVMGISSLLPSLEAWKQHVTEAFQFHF
Experiment: Ligand binding by quenching of protein fluorescence at 330 nm
Settings: Kd, first phase, free enzyme, 15 °C
result_type: pKd
pKd here: minus log base 10 of the concentration, concentration in moles per litre.

Can you share its pKd? I mean this compound: NC(=O)C1=CN([C@@H]2O[C@H](COP(=O)(O)OP(=O)(O)OC[C@H]3O[C@@H](n4cnc5c(N)ncnc54)[C@H](O)[C@@H]3O)[C@@H](O)[C@H]2O)C=CC1 [NADH]
6.31

---

biological target: hPHGDH (Homo sapiens, UniProt O43175); assay: hPHGDH reverse reaction kinetics (decrease in NADH fluorescence at 450 nm); settings: Ki of fit with substrate inhibition, reverse reaction, 150 µM NADH; Figure S4A
result_type: Ki (mM)
Give the value, in units of mM, as a plain number.

Consider the molecule O=C(O)C(=O)COP(=O)(O)O [PHP, 3-phosphohydroxypyruvate] and give its measured Ki.
2.23

---

target: hPHGDH (Homo sapiens, UniProt O43175); assay: hPHGDH reverse reaction kinetics (decrease in NADH fluorescence at 450 nm); conditions: Ki of fit with substrate inhibition, reverse reaction, 5 mM NADH; Figure S4A,C,D
result_type: pKi
Kindly note that pKi refers to -log10 of the concentration in mol/L and answer with the value alone.

O=C(O)CCC(=O)C(=O)O [α-Ketoglutarate]: 1.88

Shift focus to the following entry.
Observed pKi on hPHGDH (Homo sapiens, UniProt O43175) for O=C(O)C(=O)COP(=O)(O)O [PHP, 3-phosphohydroxypyruvate] , please.
2.90
